Values were extracted from PubChem BioAssay AID2253.

- System: THP-1 viability, CellTiter-Glo luminescence, 72 h
- Method Notes: THP-1 cell cytotoxicity, dose response, cytotoxicity control for Salmonella PhoP regulon inhibitors, S. typhimurium screen hits (AID 2253)
So I've got a bunch of compounds here, and I need their EC50 values.

Sample Cc1cc(C)n(-c2nc(NCCN(C)C)c3c4c(sc3n2)CCCC4)n1 — what was its EC50?
4.63 µM

Suppose we examine the compound CCN(CC)c1ccc(/C=N/NC(=S)NCc2ccccc2)c(O)c1 ; what EC50 value has been reported?
7.54 µM

Fill in: EC50 of Cc1ccc(-c2csc(N=C(N)N)n2)c(C)c1 is ___
23.5 µM

Returns the measured EC50 for the input compound. Input: O=C1/C(=C/c2ccccc2)NC(=S)N1C(c1ccccc1)c1ccccc1
4.48 µM

Recorded EC50 for OCCNCc1c(OCc2ccc(Cl)cc2)ccc2ccccc12 , please?
7.52 µM

Quick one: EC50 of COc1ccc(NC2=NC3(CCCCC3)N=C(N)N2)cc1 ?
35.1 µM

Tell me the measured EC50 of CCCCC(CC)CN=C(N)NC(N)=NCCCCCCN=C(N)NC(N)=NCC(CC)CCCC (stereo unspecified) , please.
1.9 µM

Consider the compound CCCCCCCCCCCCCCCC[n+]1ccc(/C=N/O)cc1 and give its measured EC50.
0.37 µM

For the compound CCCc1cnc(NCCNCC(O)COc2ccc(Cl)c(Cl)c2)nc1 (stereo unspecified) , what EC50 is on record?
11.8 µM

Any idea what its EC50 is? The compound is Oc1ccc(N=Cc2ccc(O)c(O)c2)cc1
7.64 µM

For the compound shown here, CC(=O)NC(c1ccc(Cl)cc1Cl)c1ccc2cccnc2c1O (stereo unspecified) , give the reported EC50.
0.28 µM
